- System: Cabbage Looper (Trichoplusia ni) ("CL"), second instar larvae
- Run description: Bioassay on cabbage looper (CL), 128-well diet tray assay
- Type: in vivo
- Condition details: Trichoplusia ni, read-out: CL (Biological Results, rating)
Reported metric: pest or weed control at 50 µg/cm2

Chemical string | Observed value
CCOCc1ccc(C)cc1N1C(=O)CS/C1=N\C(=O)Nc1ccc(-c2ncn(-c3ccc(OC(F)(F)F)cc3)n2)cc1C(F)F | 50 to 100%
Cc1ccc(C(C)C)c(N2C(=O)CS/C2=N\C(=O)Nc2ccc(-c3ncn(-c4ccc(OC(F)(F)F)cc4)n3)cc2C(F)(F)F)c1 | 50 to 100%

From here, focus on the item given below.
Recorded pest or weed control at 50 µg/cm2 for Cc1ccc(COCC(F)(F)F)c(N2C(=O)CS/C2=N\C(=O)Nc2ccc(-c3ncn(-c4ccc(OC(F)(F)F)cn4)n3)cc2C#N)c1 , please?
50 to 100%

---

- Test system: Cabbage Looper (Trichoplusia ni) ("CL"), second instar larvae
- Run description: Bioassay on cabbage looper (CL), 128-well diet tray assay
- Type: in vivo
- Condition details: Trichoplusia ni, read-out: CL (Biological Results, rating)
Reported metric: pest or weed control at 50 µg/cm2

Please give the measured pest or weed control at 50 µg/cm2 for this compound: Cc1ccc(C(F)(F)F)c(N2C(=O)CS/C2=N\C(=O)Nc2ccc(-c3ncn(-c4ccc(OC(F)(F)F)cn4)n3)cc2F)c1
50 to 100%

# repeat for CN(C)c1ccc(C(F)(F)F)c(N2C(=O)CS/C2=N\C(=O)Nc2ccc(-c3ncn(-c4ccc(OC(F)(F)F)cn4)n3)cc2F)c1
50 to 100%

Follow-up entry: Cc1ccc(C(C)C)c(N2C(=O)CS/C2=N\C(=O)Nc2ccc(-c3ncn(-c4ccc(OC(F)(F)F)cc4)n3)cc2C(C)C)c1
50 to 100%

---

- Tested on: Green Peach Aphid ("GPA") (Myzus persicae), wingless adult and nymph stages
- Run description: Bioassay on green peach aphid (GPA), foliar spray on infested cabbage seedlings
- Assay type: in vivo
- Condition details: Myzus persicae, foliar, 72 h, read-out: GPA (Biological Results, rating)
Reported metric: pest or weed control at 200 µg/mL

As a guide, the following entries are already answered.
Chemical string | Tested system | Observed value
Cc1ccc(C(C)C)c(N2C(=O)CS/C2=N\C(=O)Nc2ccc(-c3ncn(-c4ccc(C#N)cc4)n3)cc2F)c1 | Green Peach Aphid ("GPA") (Myzus persicae), wingless adult and nymph stages | 0 to 80%
Cc1ccc(COCC(F)(F)F)c(N2C(=O)CS/C2=N\C(=O)Nc2ccc(-c3ncn(-c4ccc(C#N)cc4)n3)cc2F)c1 | Green Peach Aphid ("GPA") (Myzus persicae), wingless adult and nymph stages | 0 to 80%

Now take the following compound into account.
Entry COC(=O)c1ccc(C(C)C)c(N2C(=O)CS/C2=N\C(=O)Nc2ccc(-c3ncn(-c4ccc(OC(F)(F)F)cc4)n3)cc2F)c1 : reported pest or weed control at 200 µg/mL = ?
0 to 80%

---

- Test system: Cabbage Looper (Trichoplusia ni) ("CL"), second instar larvae
- Run description: Bioassay on cabbage looper (CL), 128-well diet tray assay
- Format: in vivo
- Condition details: Trichoplusia ni, read-out: CL (Biological Results, rating)
Reported metric: pest or weed control at 50 µg/cm2

These recorded examples may help you get a feel for the data.
Molecule | Reported metric | Observed value
COc1cc(-c2ncn(-c3ccc(OC(F)(F)F)cc3)n2)ccc1NC(=O)/N=C1\SCC(=O)N1c1cc(N(C)C)ccc1OCCC(F)(F)F [Compound J109] | pest or weed control at 50 µg/cm2 | 50 to 100%
Cc1ccc(CC(C)C)c(N2C(=O)CS/C2=N\C(=O)Nc2ccc(-c3ncn(-c4ccc(OC(F)(F)F)cc4)n3)cc2F)c1 [Compound J47] | pest or weed control at 50 µg/cm2 | 50 to 100%
Cc1ccc(COCC(F)(F)F)c(N2C(=O)CS/C2=N\C(=O)Nc2ccc(-c3ncn(-c4ccc(C(F)(F)F)cn4)n3)cc2C(F)(F)F)c1 [Compound J304] | pest or weed control at 50 µg/cm2 | 50 to 100%
CC(C)c1ccc(N(C)C)cc1N1C(=O)CS/C1=N\C(=O)Nc1ccc(-c2ncn(-c3ccc(OC(F)(F)F)cn3)n2)cc1F [Compound J238] | pest or weed control at 50 µg/cm2 | 50 to 100%
Cc1ccc(C(C)C)c(N2C(=O)CS/C2=N\C(=O)Nc2ccc(-c3ncn(-c4cccc(OC(F)(F)F)c4)n3)cc2C)c1 [Compound J135] | pest or weed control at 50 µg/cm2 | 50 to 100%

Query molecule follows.
Fill blank: measured pest or weed control at 50 µg/cm2 of the molecule CCc1cc(-c2ncn(-c3ccc(OC(F)(F)F)cc3)n2)ccc1NC(=O)/N=C1\SCC(=O)N1c1cc(N(C)C)ccc1C(C)C [Compound J83] is ____.
50 to 100%

---

- Tested on: Beet Armyworm (Spodoptera exigua) ("BAW"), second instar larvae
- Run description: Bioassay on beet armyworm (BAW), 128-well diet tray assay
- Format: in vivo
- Condition details: Spodoptera exigua, read-out: BAW (Biological Results, rating)
Reported metric: pest or weed control at 50 µg/cm2

Compound | Tested system | pest or weed control at 50 µg/cm2
Cc1ccc(COCC(F)(F)F)c(N2C(=O)CS/C2=N\C(=O)Nc2ccc(-c3ncn(-c4ccc(OC(F)(F)F)cc4)n3)cc2F)c1 [Compound J123] | Beet Armyworm (Spodoptera exigua) ("BAW"), second instar larvae | 50 to 100%

Reported pest or weed control at 50 µg/cm2 for COc1ccc(C(C)C)c(N2C(=O)CS/C2=N\C(=O)Nc2ccc(-c3ncn(-c4cccc(OC(F)(F)F)c4)n3)cc2F)c1 [Compound J154] : what is it?
50 to 100%

Try Cc1ccc(OCCC(F)(F)F)c(N2C(=O)CS/C2=N\C(=O)Nc2ccc(-c3ncn(-c4ccc(C(F)(F)F)cn4)n3)cc2F)c1 [Compound J307] next.
50 to 100%

---

- Test system: Beet Armyworm (Spodoptera exigua) ("BAW"), second instar larvae
- Run description: Bioassay on beet armyworm (BAW), 128-well diet tray assay
- Assay type: in vivo
- Condition details: Table ABC, species BAW; C = not tested, D = no activity noticed
Reported metric: BAW rating

Consider the following illustrative entries.
Compound | Tested system | BAW rating
CCOC(C)c1ccc(C)cc1N1C(=O)CS/C1=N\C(=O)Nc1ccc(-c2ncn(-c3ccc(C(F)(F)F)cn3)n2)cc1F (stereo not drawn) [Compound J378] | Beet Armyworm (Spodoptera exigua) ("BAW"), second instar larvae | A (50-100)
Cc1cc(COCC(F)(F)F)c(N2C(=O)CS/C2=N\C(=O)Nc2ccc(-c3ncn(-c4ccc(OC(F)(F)F)cc4)n3)cc2C)cc1C [Compound J460] | Beet Armyworm (Spodoptera exigua) ("BAW"), second instar larvae | A (50-100)
Cc1cc(-c2ncn(-c3ccc(OC(F)(F)F)cc3)n2)ccc1NC(=O)/N=C1\SCC(=O)N1c1c(COCC(F)(F)F)ccc(C)c1C [Compound J679] | Beet Armyworm (Spodoptera exigua) ("BAW"), second instar larvae | A (50-100)
O=C(/N=C1\SCC(=O)N1c1ccccc1COCC(F)(F)F)Nc1ccc(-c2ncn(-c3ccc(C(F)(F)F)cc3)n2)cc1F [Compound J661] | Beet Armyworm (Spodoptera exigua) ("BAW"), second instar larvae | A (50-100)
Cc1ccc(COCC(Cl)(Cl)Cl)c(N2C(=O)CS/C2=N\C(=O)Nc2ccc(-c3ncn(-c4ccc(OC(F)(F)F)cc4)n3)cc2F)c1 [Compound J452] | Beet Armyworm (Spodoptera exigua) ("BAW"), second instar larvae | A (50-100)

# evaluate next
Which BAW rating value is on record for Cc1ccc(COCC(F)(F)Cl)c(N2C(=O)CS/C2=N\C(=O)Nc2ccc(-c3ncn(-c4ccc(OC(F)(F)F)cc4)n3)cc2F)c1 [Compound J437] ?
A (50-100)

---

- System: Yellow Fever Mosquito "YFM" (Aedes aegypti), about 1 day-old larvae
- Run description: Bioassay on yellow fever mosquito (YFM), 96-well plate larval assay
- Assay type: in vivo
- Condition details: Table ABC, species YFM; mortality scored after 3 days; C = not tested, D = no activity noticed
Reported metric: YFM rating

# count of solved cases: 5
Chemical string | YFM rating
Cc1cc(-c2cn(-c3ccc(C(F)(F)F)cn3)cn2)ccc1NC(=O)/N=C1\SCC(=O)N1c1cc(N(C)C)ccc1C(C)C | A (80-100)
Cc1ccc(COCc2ccccc2Cl)c(N2C(=O)CS/C2=N\C(=O)Nc2ccc(-c3ncn(-c4ccc(OC(F)(F)F)cc4)n3)cc2F)c1 | A (80-100)
O=C(/N=C1\SCC(=O)N1c1ccccc1COCc1ccccc1)Nc1ccc(-c2ncn(-c3ccc(OC(F)(F)F)cc3)n2)cc1F | A (80-100)
O=C(/N=C1\SCC(=O)N1c1cc(C(F)(F)F)ccc1COCc1ccccc1)Nc1ccc(-c2ncn(-c3ccc(OC(F)(F)F)cc3)n2)cc1F | A (80-100)
O=C(/N=C1\SCC(=O)N1c1cc(Cl)ccc1COCc1ccccc1)Nc1ccc(-c2ncn(-c3ccc(OC(F)(F)F)cc3)n2)cc1F | A (80-100)

Please tell me: YFM rating of Cc1ccc(COCc2ccccc2OC(F)(F)F)c(N2C(=O)CS/C2=N\C(=O)Nc2ccc(-c3ncn(-c4ccc(C(F)(F)F)cc4)n3)cc2F)c1 , system Yellow Fever Mosquito "YFM" (Aedes aegypti), about 1 day-old larvae?
A (80-100)

Also check Cc1ccc(COCc2cc3c(C(F)(F)F)nn(C)c3s2)c(N2C(=O)CS/C2=N\C(=O)Nc2ccc(-c3ncn(-c4ccc(OC(F)(F)F)cc4)n3)cc2F)c1
A (80-100)

Field entry: Cc1ccc(COCC(F)(F)F)c(N2C(=O)CS/C2=N\C(=O)Nc2ccc(-c3ncn(-c4ccnc(OCC(F)(F)F)c4)n3)cc2F)c1
A (80-100)
